Listed below: normalized growth values for each entry.
experiment: chemical genetic growth profiling, strain panel (AID 1159580);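 further: tested at 20 µM; growth read once vehicle control cultures reached saturation at 30 °C; 1 = growth at the plate median or of vehicle wells; lower values mean less growth of the strain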; settings: S. cerevisiae deletion strains, growth OD, locus YNL271C, strain bni1, active compounds read low
About 2,000 (36%) of roughly 5,500 compounds were called active. About 18% were inconclusive and are not listed. The list shows a part of the results. Where a SMILES comes first, the peptide text is derived from it. [ ]: non-standard residue; d: D form. Orn = NCCC[CH](N)C(=O)O
Endpoint label: normalized growth

* CC(=O)CC1CCCCN1 (stereo unspecified) | 0.993
* CCC1(CC)C(=O)C=CNC1=O | 1.01
* COc1ccc2c(=O)ccoc2c1 | 1
* C[C@]12CCC(=O)C=C1CCC1C2[C@@H](O)C[C@@]2(C)C1CC[C@]2(O)C(=O)COC(=O)CCC(=O)O (stereo partly specified) | 1.01
* O=C(O)c1cc(=O)c2c(Cl)cc(Cl)cc2[nH]1 | 1.02
* O=C(CCBr)N1CCN(C(=O)CCBr)CC1 | 0.999
* CCC1C(=O)OCC1Cc1cncn1C (stereo unspecified) | 1.01
* OCCN1CCN(CCCN2c3ccccc3Sc3ccc(C(F)(F)F)cc32)CC1 | 0.986
* CCCCc1nc(Cl)c(CO)n1Cc1ccc(-c2ccccc2-c2nn[nH]n2)cc1 | 0.995
* Cc1onc(-c2c(Cl)cccc2Cl)c1C(=O)N[C@@H]1C(=O)N2[C@@H]1SC(C)(C)[C@@H]2C(=O)O | 0.98
* Cc1onc(-c2ccccc2Cl)c1C(=O)N[C@@H]1C(=O)N2[C@@H]1SC(C)(C)[C@@H]2C(=O)O | 1.03
* COc1cccc(OC)c1C(=O)N[C@@H]1C(=O)N2[C@@H]1SC(C)(C)[C@@H]2C(=O)O | 0.991
* CN1CCN(CCC=C2c3ccccc3Sc3ccc(S(=O)(=O)N(C)C)cc32)CC1 | 0.986
* COC1(C)CCC2OC2(C)CCC2C1CC2(C)C (stereo unspecified) | 1.01
* CC1(C)S[C@@H]2[C@H](NC(=O)Cc3ccccc3)C(=O)N2[C@H]1C(=O)O | 1.02
* CC[C@H]1OC(=O)[C@H](C)[C@@H](O[C@H]2C[C@@](C)(OC)[C@@H](O)[C@H](C)O2)[C@H](C)[C@@H](O[C@@H]2O[C@H](C)C[C@H](N(C)C)[C@H]2O)[C@](C)(O)C[C@@H](C)[C@@H]2N[C@@H](COCCOC)O[C@H]([C@H]2C)[C@]1(C)O | 1.01
* Cc1ccc(N(CC2=NCCN2)c2cccc(O)c2)cc1 | 0.998
* CC(C)CC1NC(=O)C(CCCN)NC(=O)C(C(C)C)NC(=O)C2CCCN2C(=O)C(Cc2ccccc2)NC(=O)C(CC(C)C)NC(=O)C(CCCN)NC(=O)C(C(C)C)NC(=O)C2CCCN2C(=O)C(Cc2ccccc2)NC1=O (stereo unspecified) (cyclo(FPV[Orn]LFPV[Orn]L); configuration not given here) | 0.995
* CC(=O)Oc1cccc(C(=O)O)c1OC(C)=O | 1.01
* CC1=NN(c2ccccc2)C(=O)C1 | 0.925
* COc1c2c(cc3c1OCO3)C13C=C[C@H](OC)CC1N(C2)CC3O (stereo partly specified) | 0.992
* NCC1OC(OC2C(CO)OC(OC3C(O)C(N)CC(N)C3OC3OC(CO)C(O)CC3N)C2O)C(N)C(O)C1OC1OC(CO)C(O)C(O)C1O (stereo unspecified) | 0.985
* CN1C(=O)CCS(=O)(=O)C1c1ccc(Cl)cc1 (stereo unspecified) | 1.02
* C#C[C@]1(O)CCC2C3CCC4=Cc5oncc5C[C@]4(C)C3CC[C@@]21C (stereo partly specified) | 0.908
* CC(=O)[C@@]1(O)CCC2C3CCC4=CC(=O)CC[C@]4(C)C3CC[C@@]21C (stereo partly specified) | 1
* Cc1c(NC(=O)c2cccnc2)c(=O)n(-c2ccccc2)n1C | 0.991
* O=c1c(O)c(-c2ccc(O)c(O)c2)oc2cc(O)ccc12 | 0.978
* COc1c2ccoc2cc2oc(C)cc(=O)c12 | 0.986
* CC(=O)Oc1cccc2c1C(=O)c1c(OC(C)=O)cc(C(=O)O)cc1C2=O | 0.997
* COc1cc(O)cc(OC)c1OC | 1.01
* CC(=O)OCC1=C(C(=O)O)N2C(=O)[C@@H](NC(=O)CCCC(N)C(=O)O)C2SC1 (stereo partly specified) | 0.998
